meta.source: patent US4778792A

experimentNotes: Normolipemic activity, lipid balance in normal or hypercholesterolemic mice
Assay type: in vivo
experimentalContext: Mus musculus, po, 360 h, per os, 50 mg/kg daily for 15 days, with respect to a control group, read-out: TG (Triglycerids) %
Counter-ions that a name gives are not always drawn.
Threshold rule: change in vivo at 50 mg/kg greater than or equal to 20% is 1.0; below that, 0.0.

>  <compound>
CC(C)OC(=O)C(C)(C)Oc1ccc(C(=O)c2ccc(Cl)cc2)cc1 [Fenofibrate, fenofibrate, reference compound]

>  <assignedLabel>
1.0

$$$$
>  <compound>
CN1C(=O)C(C)(C)Oc2cc(C(=O)CCN3CCN(c4cccc(C(F)(F)F)c4)CC3)ccc21 [NM 8, hydrochloride]

>  <assignedLabel>
1.0

$$$$
>  <compound>
CN1C(=O)C(C)(C)Oc2cc(C(=O)c3ccccc3)ccc21

>  <assignedLabel>
1.0

$$$$
>  <compound>
CN1C(=O)C(C)(C)Oc2cc(C(=O)CCN3CCOCC3)ccc21 [NM 7, hydrochloride]

>  <assignedLabel>
0.0

$$$$
>  <compound>
CN1C(=O)C(C)(C)Oc2cc(C(=O)CCCN3CCN(c4ccc(F)cc4)CC3)ccc21

>  <assignedLabel>
0.0

$$$$
>  <compound>
CN1C(=O)C(C)(C)Oc2cc(C(=O)c3ccc(Cl)cc3)ccc21

>  <assignedLabel>
0.0

$$$$
>  <compound>
CCCC(=O)c1ccc2c(c1)OC(C)(C)C(=O)N2

>  <assignedLabel>
0.0

$$$$

---

Parameter: Liver weight / Body weight. Scope: all listed entries.
experimentNotes: Normolipemic activity, lipid balance in normal or hypercholesterolemic mice
Assay type: in vivo
experimentalContext: per os, 50 mg/kg daily for 15 days, with respect to a control group

>  <molecule>
CC1Oc2cc(C(=O)C=Cc3ccc(Cl)cc3)ccc2N(C)C1=O (stereo not shown)

>  <Liver weight / Body weight>
+5%

$$$$
>  <molecule>
CC1Oc2cc(C(=O)c3ccccc3)ccc2NC1=O (stereo not shown)

>  <Liver weight / Body weight>
+9%

$$$$
>  <molecule>
CCCC(=O)c1ccc2c(c1)OC(C)(C)C(=O)N2C

>  <Liver weight / Body weight>
+2%

$$$$
>  <molecule>
CN1C(=O)C(C)(C)Oc2cc(C(=O)c3ccc(Cl)cc3)ccc21

>  <Liver weight / Body weight>
+17%

$$$$

---

Parameter: change in vivo at 50 mg/kg. Scope: all listed entries.
experimentNotes: Normolipemic activity, lipid balance in normal or hypercholesterolemic mice
Assay type: in vivo
experimentalContext: Mus musculus, po, 360 h, per os, 50 mg/kg daily for 15 days, with respect to a control group, read-out: HDLC (Cholesterol fraction contained in the HDLs) %
Experimental: Activity of selected molecules by the Triton test in mice rendered hypercholesterolemic and normal mice: study of the lipid parameters, of the lipoprotein and apoprotein composition. Preliminary study on the weight of the liver and histological examination of the hepatic tissue. 3.2 The normolipemic activity has also been established in OF normal mice or rendered hypercholesterolemic. The products tested were administered per os daily for 15 days at the dose of 50 mg/kg. […]
Where a name gives a salt, the structure may show the parent alone.

>  <compound>
CCCC(=O)c1ccc2c(c1)OC(C)(C)C(=O)N2C [MZ 86, 7-Butyryl 2,2,4-trimethyl benzoxazinone]

>  <change in vivo at 50 mg/kg (%)>
18

$$$$
>  <compound>
CN1C(=O)C(C)(C)Oc2cc(C(=O)CCN3CCOCC3)ccc21 [NM 7, hydrochloride]

>  <change in vivo at 50 mg/kg (%)>
5

$$$$
>  <compound>
CCCC(=O)c1ccc2c(c1)OC(C)(C)C(=O)N2CCC(=O)O [NM 11]

>  <change in vivo at 50 mg/kg (%)>
7

$$$$
>  <compound>
CC1Oc2cc(C(=O)C=Cc3ccc(Cl)cc3)ccc2N(C)C1=O (centres unmarked) [MZ 134]

>  <change in vivo at 50 mg/kg (%)>
5

$$$$
>  <compound>
CN1C(=O)C(C)(C)Oc2cc(C(=O)c3ccccc3)ccc21 [MZ 119, 7-Benzoyl 2,2,4 trimethyl benzoxazinone]

>  <change in vivo at 50 mg/kg (%)>
-6

$$$$
>  <compound>
CC(C)OC(=O)C(C)(C)Oc1ccc(C(=O)c2ccc(Cl)cc2)cc1 [Fenofibrate, fenofibrate, reference compound]

>  <change in vivo at 50 mg/kg (%)>
-11

$$$$
>  <compound>
CN1C(=O)C(C)(C)Oc2cc(C(=O)CCCN3CCN(c4ccc(F)cc4)CC3)ccc21 [MZ 153]

>  <change in vivo at 50 mg/kg (%)>
25

$$$$
>  <compound>
CN1C(=O)C(C)(C)Oc2cc(C(=O)c3ccc(Cl)cc3)ccc21 [MZ 125]

>  <change in vivo at 50 mg/kg (%)>
1

$$$$
>  <compound>
CCCC(=O)c1ccc2c(c1)OC(C)(C)C(=O)N2 [MZ 95, 7-Butyryl 2,2-dimethyl benzoxazinone]

>  <change in vivo at 50 mg/kg (%)>
0

$$$$
>  <compound>
CC1Oc2cc(C(=O)c3ccccc3)ccc2NC1=O (centres unmarked) [MZ 115, 7-Benzoyl 2-methyl benzoxazinone]

>  <change in vivo at 50 mg/kg (%)>
-5

$$$$
>  <compound>
CN1C(=O)C(C)(C)Oc2cc(C(=O)CCN3CCN(c4cccc(C(F)(F)F)c4)CC3)ccc21 [NM 8, hydrochloride]

>  <change in vivo at 50 mg/kg (%)>
10

$$$$

---

experimentNotes: Normolipemic activity, lipid balance in normal or hypercholesterolemic mice
Type: in vivo
experimentalContext: per os, 50 mg/kg daily for 15 days, with respect to a control group

>  <compound>
CN1C(=O)C(C)(C)Oc2cc(C(=O)c3ccccc3)ccc21 [MZ 119, 7-Benzoyl 2,2,4 trimethyl benzoxazinone]

>  <Liver weight / Body weight>
+12%

$$$$
>  <compound>
CN1C(=O)C(C)(C)Oc2cc(C(=O)CCCN3CCN(c4ccc(F)cc4)CC3)ccc21 [MZ 153]

>  <Liver weight / Body weight>
+4%

$$$$
>  <compound>
CCCC(=O)c1ccc2c(c1)OC(C)(C)C(=O)N2 [MZ 95, 7-Butyryl 2,2-dimethyl benzoxazinone]

>  <Liver weight / Body weight>
+6%

$$$$
>  <compound>
CC(C)OC(=O)C(C)(C)Oc1ccc(C(=O)c2ccc(Cl)cc2)cc1 [Fenofibrate, fenofibrate, reference compound]

>  <Liver weight / Body weight>
+55%

$$$$
